- Test system: CEM cells HIV-1 protection, formazan growth assay
- PROCEDURE_DETAILS: NCI AIDS Antiviral Assay
- Experimental: The ability of compounds to protect human CEM cells from HIV-1 infection is measured as a screen for new compounds capable of inhibiting the HIV virus. Five concentrations of drug were tested on uninfected and infected cells and cell growth was measured using a soluble formazan assay. […] Compounds that provided at least 50% protection were retested. Compounds that provided at least 50% protection on retest were listed as moderately active. […]
pEC50: −log10 of the molar value.
I'd be grateful if you could share measured pEC50 for these entries.

Prompt: Input CN(C)CC1CC(=O)C(CN(C)C)CC1=O (centres undefined) , output reported pEC50.
Completion: < 3.08

Prompt: Input C/C(=N/OC(=O)N(C)C)c1ccccc1 , output reported pEC50.
Completion: < 3.70

Prompt: Input Cc1cc(=O)n(-c2c(C)cccc2Cl)c(/C=C(\O)c2ccncc2)n1 , output reported pEC50.
Completion: < 5.39

Prompt: Input Cc1cccc2c(N)c3cccc(C(=O)NCC[N+](C)(C)Cc4ccccc4[N+](=O)[O-])c3nc12 , output reported pEC50.
Completion: < 4.00

Prompt: Input O=c1[nH]c(F)nc2c1ncn2C1OC(CO)C(O)C1O (centres undefined) , output reported pEC50.
Completion: < 3.70

Prompt: Input Cc1onc(-c2c(Cl)cccc2Cl)c1C(=O)SC1=NC(C)N2C(SC(=O)c3c(-c4c(Cl)cccc4Cl)noc3C)=NC(C)N12 (centres undefined) , output reported pEC50.
Completion: < 4.72

Prompt: Input Cc1cccc(C)c1NC(=O)CCC/C(CC(=O)c1ccc(F)cc1)=N\NC(=O)C(=O)NN , output reported pEC50.
Completion: < 3.83

Prompt: Input Cc1ccc(N=NC2Sc3nc4ccccc4n3C2=O)cc1 (centres undefined) , output reported pEC50.
Completion: < 3.70

Prompt: Input CC1(C)Oc2ccc3ccccc3c2[C@@H](OC(=O)C23CCC(C)(C(=O)O2)C3(C)C)[C@H]1OC(=O)C12CCC(C)(C(=O)O1)C2(C)C (some centres undefined) , output reported pEC50.
Completion: < 3.70

Prompt: Input COC1=C2C=[N+](C)C3C(=C2C=CC1OC)Cc1cc2c(cc13)OCO2 (centres undefined) , output reported pEC50.
Completion: < 3.20

Prompt: Input CCCC1OP(=O)(N2CC(C)N(P3(=O)OCC(CC)C(CCC)O3)CC2C)OCC1CC (centres undefined) , output reported pEC50.
Completion: < 3.70

Prompt: Input COC(=O)CSSCc1ccc([N+](=O)[O-])cc1 , output reported pEC50.
Completion: < 3.70

Prompt: Input O=C1C2=C(CC3C(C2)C3(Br)Br)C(=O)C2=C1CC1C(C2)C1(Br)Br (centres undefined) , output reported pEC50.
Completion: < 5.03

Prompt: Input CC(C)C(NCc1c(O)ccc2c(-c3ccccc3)cc(=O)oc12)C(=O)O (centres undefined) , output reported pEC50.
Completion: < 3.70

Prompt: Input Cc1ccc(/C=C(/C(=O)c2ccccc2)c2ccccc2)cc1 , output reported pEC50.
Completion: < 5.31

Prompt: Input S=c1[nH]nc(-c2ccccc2Cl)o1 , output reported pEC50.
Completion: < 3.70

Prompt: Input O=C1CCC(=O)c2sccc2N1 , output reported pEC50.
Completion: < 2.86

Prompt: Input COc1ccc(CC(CC(=O)O)NC(C)=O)cc1 (centres undefined) , output reported pEC50.
Completion: < 3.00

Prompt: Input COC(=O)NC1C(C)OC(OC2C/C=C(/C)C3C=CC4C(OC5CC(OC6CC(O)C(OC7CC(O)C(OC)C(C)O7)C(C)O6)C(O)C(C)O5)C(C)CC(C)C4C3(C)/C(O)=C3\C(=O)OC4(CC(C)C(CO)=CC4/C=C\2C)C3=O)CC1(C)[N+](=O)[O-] (centres undefined) , output reported pEC50.
Completion: < 3.68

Data origin: PubChem BioAssay AID179
